# Test system: OVCAR-5 complex spheroid (HUVEC/MSC), viability % T/C
# Assay: Anticancer human tumor OVCAR-5 cell line growth inhibition [Asc];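 further: spheroids exposed to agents for 7 days before readout; 100% = DMSO vehicle-treated wells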
# Measurement Setup: second compound 3.16 µM; first compound 0.00316 µM; hits give low values
Recorded Metric: viability, T/C (%)
Report as a plain number; the unit % is understood.

Compound	Test System	viability, T/C / %
NC1CCC(NC2CC2c2ccccc2)CC1 (stereo not drawn) + Cc1c(S(C)(=O)=O)c(-c2cc(F)cc(N3CCN(c4ccc(NS(=O)(=O)c5ccc(NC(CCN6CCC(C(=O)OCCCP(=O)(O)O)CC6)CSc6ccccc6)c(S(=O)(=O)C(F)(F)F)c5)cc4)CC3)c2)c(-c2ccc(Cl)cc2)n1C(C)C	OVCAR-5 complex spheroid (HUVEC/MSC), viability % T/C	83.7

[in] Item: CCN1CCN(Cc2ccc(Nc3ncc(F)c(-c4cc(F)c5nc(C)n(C(C)C)c5c4)n3)nc2)CC1 + Cc1c(S(C)(=O)=O)c(-c2cc(F)cc(N3CCN(c4ccc(NS(=O)(=O)c5ccc(NC(CCN6CCC(C(=O)OCCCP(=O)(O)O)CC6)CSc6ccccc6)c(S(=O)(=O)C(F)(F)F)c5)cc4)CC3)c2)c(-c2ccc(Cl)cc2)n1C(C)C Test system: OVCAR-5 complex spheroid (HUVEC/MSC), viability % T/C Read-out: viability, T/C Value: ?
[out] 77

[in] // same read-out, input: COc1c(OCCCN2CCOCC2)ccc2c3n(c(=NC(=O)c4cnc(N)nc4)nc12)CCN3 + Cc1c(S(C)(=O)=O)c(-c2cc(F)cc(N3CCN(c4ccc(NS(=O)(=O)c5ccc(NC(CCN6CCC(C(=O)OCCCP(=O)(O)O)CC6)CSc6ccccc6)c(S(=O)(=O)C(F)(F)F)c5)cc4)CC3)c2)c(-c2ccc(Cl)cc2)n1C(C)C
[out] 64.5
